# Test system: ATP;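 also: ATP exposure 15 min at 22 °C before imaging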
# assay text: switch fluorescence ratio, 500 uM ATP over buffer (Cy3 cluster intensity, sum of 5 cycles each) (fold (ratio)); higher = stronger signal-on switching upon ATP binding; sequences stand for … in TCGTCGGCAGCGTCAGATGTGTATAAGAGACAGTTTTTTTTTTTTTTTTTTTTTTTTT…TC
# test settings: aptamer strand: ATP DNA aptamer (quencher-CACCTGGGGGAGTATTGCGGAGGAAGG + anchor), 100 nM annealed; ATP concentration: 500 uM
parameter: switch fluorescence ratio
The answer should be a number; do not append a unit.

Example sequences with recorded switch fluorescence ratio:
{"macromolecule sequence": "CGTGTTCTGG", "study target": "ATP", "switch fluorescence ratio": 0.994}
{"macromolecule sequence": "GAAGTAGCCT", "study target": "ATP", "switch fluorescence ratio": 0.998}
{"macromolecule sequence": "CATGTGCGTG", "study target": "ATP", "switch fluorescence ratio": 1}

Consider the sequence `TACGTGCATA` and give its measured switch fluorescence ratio. 1.12

Can you check `TGGGAATTTC` next? 1.03

Now the sequence `TGGTTCTGTG` 1.03

Repeat for the following sequence: `AAGACTTGTG` 0.981

For `ACTGTGGAAT` then? 1.07

====

# Test system: ATP;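 also: ATP exposure 15 min at 22 °C before imaging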
# assay text: switch fluorescence ratio, 500 uM ATP over buffer (Cy3 cluster intensity, sum of 5 cycles each) (fold (ratio)); higher = stronger signal-on switching upon ATP binding; sequences stand for … in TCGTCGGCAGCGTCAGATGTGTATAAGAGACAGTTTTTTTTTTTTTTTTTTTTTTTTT…TC
# test settings: aptamer strand: ATP DNA aptamer (quencher-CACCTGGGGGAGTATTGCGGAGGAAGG + anchor), 100 nM annealed; ATP concentration: 500 uM
switch fluorescence ratio vs 1: at or above is MET, below is NOT MET.

{"macromolecule sequence": "CCTGAAACCT", "study target": "ATP", "label": "MET"}
{"macromolecule sequence": "GGGATTGTTT", "study target": "ATP", "label": "NOT MET"}
{"macromolecule sequence": "GCTGGCAATT", "study target": "ATP", "label": "MET"}
{"macromolecule sequence": "TGAGTTTCCA", "study target": "ATP", "label": "NOT MET"}

// inclusive: switch fluorescence ratio at least 1? input: `TTCAGGCCTT` MET

Same question, `GCGTGGGATA` this time MET

Note, next up: `GCGTGTGTTC` MET

What do we get for `CATGAATGGT` ? NOT MET

Same for `ACCAGGGCAT` MET

How about this sequence: `AGTAACGGTG` MET

====

# System: ATP;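 also: ATP exposure 15 min at 22 °C before imaging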
# assay text: switch fluorescence ratio, 500 uM ATP over buffer (Cy3 cluster intensity, sum of 5 cycles each) (fold (ratio)); higher = stronger signal-on switching upon ATP binding; sequences stand for … in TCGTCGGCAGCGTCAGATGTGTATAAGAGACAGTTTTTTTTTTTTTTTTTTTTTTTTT…TC
# test settings: aptamer strand: ATP DNA aptamer (quencher-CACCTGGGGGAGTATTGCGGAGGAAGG + anchor), 100 nM annealed; ATP concentration: 500 uM
parameter: switch fluorescence ratio
Please reply with the value in numeric form only.

Guide cases for switch fluorescence ratio, answers given:
{"macromolecule sequence": "ATTGATCTCG", "parameter": "switch fluorescence ratio", "measured number": 1.04}
{"macromolecule sequence": "GGGTAAGATC", "parameter": "switch fluorescence ratio", "measured number": 1.02}
{"macromolecule sequence": "AAACCAGCCC", "parameter": "switch fluorescence ratio", "measured number": 1.21}

Give recorded switch fluorescence ratio with ATP for the following sequence: `TGATAACCGC` 1.1

Also, `CATATTTCGC` please. 1.03
